- Tested on: intracellular L. donovani LV82 parasites
- PROCEDURE SUMMARY: L. donovani-infected macrophage assay (high content imaging)
- Assay type: cell-based, Leishmania donovani
- DETAILS: Leishmania donovani, Peritoneal macrophage; murine peritoneal macrophages as host cells; n=3 determinations; read-out: EC50 against intracellular L. donovani
- Excerpt: Evaluation in an infected macrophage model. Four of the compounds described above were selected for evaluation in an L. donovani infected macrophage model. […] L. donovani-infected macrophage assay. […] For the quantification of the infection, macrophage nuclei were selected first by DAPI staining with area larger than 30 μm^2. […]
QUANTITY NAME: pEC50
Schema: pEC50 number; meaning minus log10 of the concentration expressed in molar units.

What value of pEC50 has been recorded for this entry: O=C(Nc1ccc(OCc2cc(C(F)(F)F)cc(C(F)(F)F)c2)cc1)N1CCN(CCc2ccncc2)CC1 [Compound 18e]
5.40

Data provenance: patent US20260083728A1
